# PROTOCOL: RPMI8226 myeloma cell viability, profiling panel, resazurin fluorescence, basal, 24 h, PK04 Diversity Set (AID 1180);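 further: RPMI8826 multiple myeloma cell line at 5000 cells per well; test concentration not given here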
# EXPERIMENTAL PARAMETERS: higher = more signal
Respond with satisfied for z-score values of 0.09 and above, not satisfied for values below.

>>> class("Cc1ccc(C2CC=C(C(=O)O)CN2S(=O)(=O)c2ccc(C)cc2)cc1 (stereo not drawn)")
"not satisfied"
>>> class("O=C1C[C@@H](O)[C@@H](O)[C@@H]2[C@@H]3C(=O)N(c4ccc(F)cc4F)C(=O)[C@@H]3CC[C@@H]12")
"satisfied"
>>> class("CC(C)C[C@@H]1NC(=O)[C@H]2C[C@@H](C(=O)NCCCCCCN(C)C)[C@@H](c3cccc(OCCO)c3)N2C1=O")
"not satisfied"
>>> class("CC(C)NC(=O)[C@@]1(c2ccc([N+](=O)[O-])cc2)CC(=O)N(CC23CC4CC(CC(C4)C2)C3)[C@@H]1c1ccc(CO)cc1I")
"not satisfied"
>>> class("O=C1c2ccccc2[C@@]2(Cc3ccccc3N(C3CC3)C2=O)[C@H](c2ccc(CO)cc2)N1Cc1ccccc1C(F)(F)F")
"not satisfied"
>>> class("C=COC[C@H]1CN2[C@@H](CC[C@@H](C)[C@@H]2c2ccc(Br)cc2)C(=O)O1")
"not satisfied"
>>> class("COC(=O)CC=C[C@@H](C)[C@H](OC)c1ccccc1Br")
"not satisfied"
>>> class("COc1ccc(O[C@@H]2[C@H](O)CO[C@H]2C=CC#Cc2ccccc2)cc1")
"satisfied"
>>> class("CC(C)CON=C1C[C@@H](O)[C@@H](O)[C@@H]2[C@@H]3C(=O)N([C@@H](C)c4ccccc4)C(=O)[C@@H]3CC[C@H]12")
"satisfied"
>>> class("COc1ccc(CCNC(=O)[C@@H]2c3ccccc3C(=O)N(c3ccc(C)cn3)[C@H]2c2ccc(CO)cc2)cc1")
"satisfied"
>>> class("C=C(/C(=C/C[C@H](OC(C)=O)c1ccc(OCCO)cc1)c1cnc2ccccc2c1)C(C)C")
"not satisfied"
>>> class("CCN1C(=O)[C@H]2[C@H]3[C@H](O)C=CC(=O)[C@@H]3CC[C@H]2C1=O")
"not satisfied"
>>> class("CO[C@@H]1COC(=O)CCC[C@@H](C)[C@H](OC)COC(=O)[C@H](Cc2ccccc2)NC(=O)CC=C[C@H]1C")
"satisfied"
>>> class("COc1ccccc1CN1C(=O)c2ccccc2[C@@]2(Cc3ccccc3N(C(C)C)C2=O)[C@@H]1c1ccc(CO)cc1")
"not satisfied"
>>> class("O=C1[C@H]2[C@H]3[C@H](O)[C@H](O)CC(=NOCc4ccccc4)[C@H]3CC[C@H]2C(=O)N1C[C@@H]1CCCO1")
"not satisfied"
>>> class("CC=CC1=C(CO)[C@H](O)[C@H]2O[C@H]2[C@H]1O")
"not satisfied"
>>> class("C#C[C@@H](CC)O[Si](C#Cc1ccc(Oc2ccccc2)cc1)(C(C)C)C(C)C")
"not satisfied"
>>> class("O=C1NC(=O)C2C1C=CC(C(O)Cc1ccccc1)N2Nc1ccccn1 (stereo not drawn)")
"not satisfied"
>>> class("CC(C)NC(=O)[C@@]1(C)c2ccccc2C(=O)N(Cc2cc(F)cc(C(F)(F)F)c2)[C@H]1c1ccc(CO)cc1")
"not satisfied"
>>> class("CCOC(=O)C1=CC[C@H]2C(=O)N(CC)C(=O)[C@@H]12")
"satisfied"
>>> class("COc1ccc(O[C@H]2C=C[C@@H](c3ccccc3)O[C@@H]2COC(=O)CCC(C)=NOCC[C@@H]2C=C[C@H](OC(C)=O)[C@@H](COC(C)=O)O2)cc1")
"satisfied"
>>> class("C#CCCCON=C1C[C@@H](O)[C@@H](O)[C@@H]2[C@@H]3C(=O)N(CCC(=O)OCC)C(=O)[C@@H]3CC[C@@H]12")
"not satisfied"
>>> class("CCc1cc2c(nc1CC)CCN(CCC(C)=NOC[C@@H](O)[C@H]1O[C@@H]3OC(C)(C)O[C@@H]3[C@H]1O)C2")
"not satisfied"
